Values from patent US6969721B2

Let's look at some compounds and their measured melting point.

Example results:
>>> print(df.to_string())
                                   compound         result
0  CCCCC1(C)c2cc(Cl)ccc2Nc2c1cc[nH]c2=O (centres unmarked) [Example 61a]  177 to 179 °C
1  O=c1[nH]ccc2c1Nc1ccc(Cl)cc1C2(CCC1CC1)C(F)(F)F (centres unmarked) [Example 20]  220 to 222 °C

Req: Give a short answer stating reported melting point for CC(C)SCC1(C(F)(F)F)c2cc(F)ccc2Nc2c1cc[nH]c2=O (centres unmarked) [Example 45] .
Resp: 215 to 216 °C

Req: Give a short answer stating reported melting point for CC(C)OCC1(C(F)(F)F)c2cc(Cl)ccc2Nc2c1cc[nH]c2=O (centres unmarked) [Example 28] .
Resp: 185 to 190 °C

Req: Give a short answer stating reported melting point for CC(C)NCC1(C(F)(F)F)c2cc(Cl)ccc2Nc2c1cc[nH]c2=O (centres unmarked) [Example 30] .
Resp: 235 to 240 °C

* * *

Let's look at some compounds and their measured melting point.

                                   compound  reported_property         result
0  O=c1[nH]ccc2c1Nc1ccc(Cl)cc1C2(C#CC1CC1)C(F)(F)F (stereo not drawn)      melting point  247 to 250 °C

Req: Give a short answer stating reported melting point for CCCCC1(C#N)c2cc(Cl)ccc2Nc2c1cc[nH]c2=O (stereo not drawn) .
Resp: 182 to 185 °C

Req: Give a short answer stating reported melting point for O=c1[nH]ccc2c1Nc1ccc(Cl)cc1C2(CNC1CCC1)C(F)(F)F (stereo not drawn) .
Resp: 250 to 254 °C

* * *

Let's look at some compounds and their measured melting point.

Example results:
                                   compound         result
0  CCCNCC1(C(F)(F)F)c2cc(Cl)ccc2Nc2c1cc[nH]c2=O (stereo not drawn) [Example 33]  243 to 245 °C
1  O=c1[nH]ccc2c1Nc1ccc(Cl)cc1C2(Cc1ccccn1)C(F)(F)F (stereo not drawn) [Example 19]  270 to 275 °C
2  CCOCCC1(C(F)(F)F)c2cc(Cl)ccc2Nc2c1cc[nH]c2=O (stereo not drawn) [Example 62]  240 to 245 °C
3  CC(C)SCC1(C(F)(F)F)c2cc(Cl)ccc2Nc2c1cc[nH]c2=O (stereo not drawn) [Example 44]  220 to 221 °C
4  O=c1[nH]ccc2c1Nc1ccc(Cl)cc1C2(CO)C(F)(F)F (stereo not drawn) [Example 23]  270 to 275 °C

Req: Give a short answer stating reported melting point for CCCOCC1(C(F)(F)F)c2cc(Cl)ccc2Nc2c1cc[nH]c2=O (stereo not drawn) [Example 27] .
Resp: 162 to 165 °C

Req: Give a short answer stating reported melting point for CCCCC1(C(F)(F)F)c2cc(Cl)ccc2Nc2c1cc[nH]c2=O (stereo not drawn) [Example 18] .
Resp: 245 to 248 °C

Req: Give a short answer stating reported melting point for CCCCC1(CO)c2cc(Cl)ccc2Nc2c1cc[nH]c2=O (stereo not drawn) [Example 64] .
Resp: 260 to 265 °C

Req: Give a short answer stating reported melting point for CC(C)OCC1(C(F)F)c2cc(Cl)ccc2Nc2c1cc[nH]c2=O (stereo not drawn) [Example 64b] .
Resp: 138 to 142 °C

Req: Give a short answer stating reported melting point for CC(C)N(C)CC1(C(F)(F)F)c2cc(Cl)ccc2Nc2c1cc[nH]c2=O (stereo not drawn) [Example 31] .
Resp: 105 to 110 °C

Req: Give a short answer stating reported melting point for CC(C)CNCC1(C(F)(F)F)c2cc(Cl)ccc2Nc2c1cc[nH]c2=O (stereo not drawn) [Example 35] .
Resp: 210 to 215 °C
